Data provenance: the supplement of paper PMC9170038

Provide the reported apparent KD of MS2 coat protein of each item.
# System: MS2 coat protein
# Assay Summary: apparent KD of MS2 coat protein; designed switch direction (-1 OFF switch, 1 ON switch): -1; higher = weaker reporter binding
# Protocol Conditions: Eterna round: R95; input ligand: microRNA oligo, concentration not stated
Give bare numbers, in µM.

Worked examples, 5 sequences total:
- Chain: "GAUCCUUAAGUCAGGAUAUCAAGCAAACUCAAAAUUGAGAAGGGACAUGAGGAUCACCCAUGUCACCGAAAUAA [Reteisus] (puzzle: Brourd's mod of Exclusion 4)"
  apparent KD of MS2 coat protein / µM: 0.00898
- Chain: "GUGUGCUGAGGAUAUACAGAGGAAGAUAAGAUAAGAUAAUCACAUGAGGAUCACCCAUGUAGAAGGCAGAGUGU [Excluse me!! 16 - Jieux - Exclusion 2] (puzzle: Exclusion 2)"
  apparent KD of MS2 coat protein / µM: 0.027
- Chain: "CUCCUCGUGGCGCCUAAACACAUGAGGAUCACCCAUGUACAGGCUUUUUGCCGUCUUAUAAUAAAACCGAGGAUACG [Cezabi] (puzzle: Sensor v3, turn-off variant 1)"
  apparent KD of MS2 coat protein / µM: 0.0639
- Chain: "GAUUGACAUGAGGAUCACCCAUGUGAGGAUAUCGGCCGGACCUUGUUAGCUUCCAUCGCGAGAAGGCACAUAGG [Exclusion 1 V32] (puzzle: Exclusion 1)"
  apparent KD of MS2 coat protein / µM: 0.0252
- Chain: "AAAUAACAAGCGAGAUCCUACAUGAGGAUCACCCAUGUGCUCGUCUUAAUAAGUACUAUCACGAAAGUGAUAGUACA [Mat - Sensor v3 - turn-off var 1 - Eli Mod - D67] (puzzle: Sensor v3, turn-off variant 1)"
  apparent KD of MS2 coat protein / µM: 0.471

Field: apparent KD of MS2 coat protein. Fill in for each record below.
1. AUAAAGAAUGUUAGGAUAUUGGUGAAUAGGCUGACUAAGAAGGAACAUGAGGAUCACCCAUGUAAAAUGGAAAA [Readima] (puzzle: Brourd's mod of Exclusion 4)
2. GUAAAGUGAGGAUAUGGUGAGUAGUGCCUGAGCGCUGCUCACCAGAAGGCACAUGAGGAUCACCCAUGUAUAGC [Mat - Exclusion 4 - Mod of JL - D17] (puzzle: Exclusion 4)
3. GGAAUACAUGAGGAUCACCCAUGUAAGGAUAUGCUGAAUAACACGGAAUUAACGUGCAGCAGAAGGUACAAAGG [Mat - Mod of my Eli Mod D43] (puzzle: Exclusion 1)
4. UCAUAACAUGAGGAUCACCCAUGUCAGGAUAUGAUACUAUGUACUUCGGUACAUAGUAUCAGAAGGGACAUGCU [Brourd's Ex1-3: 12 (nt 72 G)] (puzzle: Exclusion 1)
5. UUACAAUGUCGCUUAAUAGCUUUUUGCUCGUCUUAUAUUACAUGAGGAUCACCCAUGUAGAUCAUGUGGCGUGACCU [JL ViennaUCT Maridi mod 7] (puzzle: Sensor v3, turn-off variant 2)

Result ::
1. 0.023
2. 0.014
3. 0.0633
4. 0.135
5. 0.0407

Could you tell me apparent KD of MS2 coat protein for each of these sequences? They are listed below.
1. AGUAACUAUCACGAAAGUGAUAGUUACAACAGGUGAUAAACAUGAGGAUCACCCAUGUCCUCAUUUGCUCGUCUUAU [Sensor 3 - 11] (puzzle: Sensor v3, turn-off variant 2)
2. UUUAUGUCAGGAUAUGAGUCGUAGAACAAUAGUACUACGUCUCAGAAGGGACAUGAGGAUCACCCAUGUGCCUC [Fiskers Ex 4 Super Stable 44 mod 26] (puzzle: Exclusion 4)

Result ::
1. 0.422
2. 0.0357

Could you tell me apparent KD of MS2 coat protein for each of these sequences? They are listed below.
1. GGAAGUAGAAACCGAUCCUACAUGAGGAUCACCCAUGUAGCAAGACGUGCACGCGAAGCUCGUCAGACUACCAGAAA [salish99_TOv1_r3_009] (puzzle: Sensor v3, turn-off variant 1)
2. UUGAAGUAAGGAUAUACAUGAGGAUCACCCAUGUAAAGGAAAGUAAUGGGAGUAGGAAGUAGAAGGUACGAGGA [JR_Exclu3_Sub062] (puzzle: Exclusion 3)
3. AGUACUAACACGGAAGUGUUAGUACAAUAAGCUUGUGAAACAUGAGGAUCACCCAUGUCCUCAUAAGCUCGUCUUAU [salish99_TOv2_r3_026] (puzzle: Sensor v3, turn-off variant 2)
4. AAUAAUAAGGAGGAUAUCGUAUCGGAAACGAUACGAGAAGGUCUAACAUGAGGAUCACCCAUGUUCCUCAAAUA [Mat - Exclusion 6 - Eli Mod - D44] (puzzle: Exclusion 6)
5. ACCUCACAUGAGGAUCACCCAUGUUAGGAUAUCUCGGCGCCCUGCAGGCAGUGGCACCAGAGAAGGAACGUGCA [Xeindiisti] (puzzle: Exclusion 1)
6. CGAUGUUGUGUCAGGAUAUGCGUUGCGAAAGCAAUGUAGAAGGGACAUGAGGAUCACCCAUGUUCUAACCAUCG [Omei A 9] (puzzle: Brourd's mod of Exclusion 4)
7. UUUUAACAUGAGGAUCACCCAUGUGAGGAUAUCGAUAUUUAUAUUAAUAUUAAUAAAACGAGAAGGCACAUUUU [JMF 7] (puzzle: Exclusion 1)

Result ::
1: 0.286; 2: 0.0666; 3: 0.315; 4: 0.0371; 5: 0.0204; 6: 0.0112; 7: 0.0652

Query :: Form field: reported apparent KD of MS2 coat protein of UAGACCGAUGUUAGGAUAUCUGGUCGAGAAAGAAAAGAGAAGGAACAUGAGGAUCACCCAUGUACCCGGGUAAC [Laisbebi] (puzzle: Brourd's mod of Exclusion 4)
Result :: 0.0167

----------
# Tested on: MS2 coat protein
# Assay Summary: apparent KD of MS2 coat protein; designed switch direction (-1 OFF switch, 1 ON switch): -1; higher = weaker reporter binding
# Protocol Conditions: Eterna round: R95; input ligand: microRNA oligo, concentration not stated
Give measured apparent KD of MS2 coat protein for each item. Keep answers brief.
Give bare numbers, in nM.

// for each sequence below, give its apparent KD of MS2 coat protein
1. UUUUAACAUGAGGAUCACCCAUGUGAGGAUAUCGAAAUUUAUAUUAAUAUUUUUAUAUCGAGAAGGCACAUUUU [JMF 72] (puzzle: Exclusion 1)
2. UUUUGUUUUUUAUUUUUUAACAUGAGGAUCACCCAUGUAACGAGCAGAUCUUCAUGCAAGCUUUUUGCUCGUCUUAU [Sensor v3 - Turn-off variant 1 - 42] (puzzle: Sensor v3, turn-off variant 1)
3. AAUCGACAUGAGGAUCACCCAUGUUAGGAUAUGCGGAAUCGGUCAAUCAAUCGAUCAAGCAGAAGGGACGGGUU [Candy Rainbow] (puzzle: Exclusion 1)

Result ::
1. 84.7
2. 16.1
3. 27.4

----------
# Test system: K4 kissing-loop RNA reporter;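 further: bound reporter read as fluorescence of individual clusters on recovered sequencing chips by microscopy, with normalized cluster intensities fitted with a binding model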
# Assay Summary: apparent KD of K4 kissing-loop reporter; higher = weaker reporter binding
# Protocol Conditions: Eterna round: R107; input ligand: arginine 13.2 mM
Readout Label: apparent KD of K4 kissing-loop reporter (nM)
Give bare numbers, in nM.

The cases that follow already have their apparent KD of K4 kissing-loop reporter on record.
- Chain: "CGCAGUGAUGUUGCGAAUAUAAUUACGGAAGGAGCGCGUGAAAACGCAGGUAGGUCGCCGUUUGGUAUGAUGGAAACAUCGUACC [Arginine A K4 10]"
  apparent KD of K4 kissing-loop reporter [nM]: 125
- Chain: "UAUACUAGACAAGAGAGAAUUCUCUCAAGAGAGGAUAUCCGAAUUCGGAGAAGGCUCUCUAAGUGAUGUUUGGAAUAGUCUAGAA [AK5 SS FMN A]"
  apparent KD of K4 kissing-loop reporter [nM]: 448
- Chain: "GGUAGCAUGGCGGCCGCCACUUCAAGUGGAGUGAUGUUCCACGGCAUCGCGAAAGCGAUGCCUGGAAGGACCGGGCCAUGCUACC"
  apparent KD of K4 kissing-loop reporter [nM]: 739
- Chain: "AAUUACCUAGUGAUGUUGGGAAUAAUAUAACGAGGACCGGUACGGCCGCCACUCGAGGUCCUAAUUAAGAACGCGAAAGCGAAGA [Tryptophan A Exclusion; Euphoria Solution]"
  apparent KD of K4 kissing-loop reporter [nM]: 60.5

Hello, I would appreciate it if you could give apparent KD of K4 kissing-loop reporter for each entry below.
1. AGUGUGCAAAAGCACACUCAGCACAAGGACAAGGAUAUCUACUAAUAGAGAAGGUGUCCUUUCCUUAGUGAUGUUAAGGAGCUGA [Omei KL FMN A SS D v1]
2. GCUAUGGUAGGAAGGAGCGCGGACGGUAUUUGUCGAGUGAUGUUCGAUUCUUUAAUUUGAACGCAGGUAGGUCGCCUACUAUAGC [Arginine B K4 30]
3. GUUAUGGACCUGGAUACCAGCUGGUACUAAGUGGGAGAAUGAAAGUGAUGUUUUCGUGCUAGCCCUUGGCAGCCAGCAACCCGCA [XTheo-B7]
4. CCUAUCUCAUACGAUACCAGUCUAUUAAAACGAGUGAUGUUCGAAUAUUUGCCAUAUAAUGACCCUUGGCAGCGUAUGGGAUAGG [Ex Theophylline B K4 9]
5. CCAAGGUGCUUCUGUUCAGUGAUGUUGGUACGAGGACCGGUACGGCCGCCACUCGCCGUACAAUCGCUAGUUAAUCAUUGGCAAG [theeternabot_exclusion_KL_Trp_A_40]
6. GGCCACGGGCGAGGAUAUGGGCAUGAUUCAUCCUGGAGUGAUGUUCCAGGUCCUACGUUUCUAGCACCAGAAGGCGUUUGUUGCU [Enistein]
7. AGUACAAUGGCGGCCGCCACUCAACGCAGAUCAAAGAUCUGCAUUCACUCAGUGAUGUUGAGUGAGAGGACCGGGCCUUUGUACA [Omei KL Tryp B SS B v1]
8. AUGUAUGAAUUAGGAUAUCGUGAGCUUUGCAUAUAUAUGAUAAAUGGAUAUGUCGUAGUGAUGUUACGAGAAGGAGUGUGGAGUA [KL-XFMN-B3]

Result ::
526
183
83.6
229
408
196
581
55.7
